Source listed as ChEMBL document CHEMBL4118283.

Method Summary: Protein binding in Sprague-Dawley rat plasma at 10 to 100 mg/kg, po by LC-MS/MS analysis
Type: ADME, organism-based
Condition Set: read-out: PPB (converted)
Quantity: fraction unbound
Lab note: jot the number down without any unit.

(Q) Please look up its fraction unbound: "O=C(O)c1csc(-n2nc(-c3ccccc3)c3ccc(C(F)(F)F)nc32)n1"
(A) 0.026

* * *

Catalogue of molecules with associated CLint scaled
Method Summary: Intrinsic clearance in rat
Type: ADME, organism-based
Condition Set: in vivo
# value in mL/min/kg; strip the unit string

Worked set:
> print(dat)
                              line.notation  observed.value
1  O=C(O)c1csc(Cn2nc(-c3ccccc3)c3ccc(C(F)(F)F)cc32)n1             111
2  O=C(O)c1csc(-n2nc(-c3ccccc3)c3ccc(C(F)(F)F)nc32)n1              94

Please examine the following record next.
(Q) Please look up its CLint scaled: "O=C(O)c1csc(-n2nc(C3=CCCCO3)c3ccc(C(F)(F)F)cc32)n1"
(A) 232

* * *

Method Summary: Oral bioavailability in Sprague-Dawley rat at 10 to 100 mg/kg by LC-MS/MS analysis
Format: ADME, organism-based
Condition Set: in vivo
Quantity: bioavailability (%)
# value in %; strip the unit string

(Q) Please look up its bioavailability: "O=C(O)c1csc(-n2nc(-c3ccccc3)c3ccc(C(F)(F)F)nc32)n1"
(A) 26

* * *

Target: Prostaglandin E2 receptor EP2 subtype (Homo sapiens, UniProt P43116)
Sequence (P43116 whole entry): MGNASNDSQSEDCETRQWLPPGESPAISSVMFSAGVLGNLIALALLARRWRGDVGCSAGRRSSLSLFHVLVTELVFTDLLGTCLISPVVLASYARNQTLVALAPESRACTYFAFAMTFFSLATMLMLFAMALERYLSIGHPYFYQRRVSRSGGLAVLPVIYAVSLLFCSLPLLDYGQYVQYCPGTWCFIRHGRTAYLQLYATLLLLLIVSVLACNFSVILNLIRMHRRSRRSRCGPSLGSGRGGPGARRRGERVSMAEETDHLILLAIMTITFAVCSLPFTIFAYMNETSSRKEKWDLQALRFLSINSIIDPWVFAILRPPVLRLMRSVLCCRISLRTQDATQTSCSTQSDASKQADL
pKi: −log10 of the molar value.
Quantity: pKi

(Q) So what pKi did "O=C(O)c1csc(-n2nc(-c3ccccc3)c3ccc(C(F)(F)F)nc32)n1" get with Prostaglandin E2 receptor EP2 subtype (Homo sapiens, UniProt P43116)?
(A) < 5.06

* * *

Method Summary: Cmax in Sprague-Dawley rat at 30 mg/kg, po by LC-MS/MS analysis
Format: ADME, organism-based
Set-up: dose 30 mg/kg, route oral
Condition Set: in vivo
Quantity: Cmax

(Q) Please look up its Cmax: "O=C(O)c1csc(-n2nc(-c3ccccc3)c3ccc(C(F)(F)F)nc32)n1"
(A) 75.1 µM

* * *

Method Summary: Cmax in Sprague-Dawley rat at 10 mg/kg, po by LC-MS/MS analysis
Assay type: ADME, organism-based
Design: dose 10 mg/kg, route oral
Condition Set: in vivo
Quantity: Cmax (µM)
# value in µM; strip the unit string

(Q) Please look up its Cmax: "O=C(O)c1csc(-n2nc(-c3ccccc3)c3ccc(C(F)(F)F)nc32)n1"
(A) 24.8

* * *

Method Summary: Cmax in Sprague-Dawley rat at 100 mg/kg, po by LC-MS/MS analysis
Format: ADME, organism-based
Design: dose 100 mg/kg, route oral
Condition Set: in vivo
Quantity: Cmax (µM)
# value in µM; strip the unit string

(Q) Please look up its Cmax: "O=C(O)c1csc(-n2nc(-c3ccccc3)c3ccc(C(F)(F)F)nc32)n1"
(A) 179

* * *

Target: Prostaglandin E2 receptor EP1 subtype (Homo sapiens, UniProt P34995)
Sequence (P34995 whole entry): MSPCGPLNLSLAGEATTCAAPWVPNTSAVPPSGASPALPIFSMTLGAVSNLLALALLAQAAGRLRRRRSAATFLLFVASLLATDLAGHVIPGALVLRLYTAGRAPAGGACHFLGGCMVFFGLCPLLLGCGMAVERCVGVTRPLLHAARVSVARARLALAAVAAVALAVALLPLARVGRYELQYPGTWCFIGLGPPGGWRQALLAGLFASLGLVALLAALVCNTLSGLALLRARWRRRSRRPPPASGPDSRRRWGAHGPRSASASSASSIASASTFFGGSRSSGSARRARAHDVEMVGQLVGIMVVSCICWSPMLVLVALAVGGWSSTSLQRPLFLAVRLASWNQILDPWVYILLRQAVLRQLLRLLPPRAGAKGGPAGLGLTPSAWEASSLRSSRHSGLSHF
Method Summary: Antagonist activity at EP1 receptor (unknown origin) by reporter gene assay
Catalogue of compounds with associated IC50
# value in nM; strip the unit string

> print(dat)
                              line.notation  quantity  observed.value
1  O=C(O)c1csc(-n2nc(C3=CCCCO3)c3ccc(C(F)(F)F)cc32)n1      IC50             0.7

(Q) Please look up its IC50: "O=C(O)c1csc(-n2nc(-c3ccccc3)c3ncc(C(F)(F)F)cc32)n1"
(A) 12

(Q) Please look up its IC50: "CN(C)c1ccc2c(-c3ccccc3)nn(-c3nc(C(=O)O)cs3)c2n1"
(A) 12

(Q) Please look up its IC50: "O=C(O)c1csc(-n2nc(-c3ccccc3)c3ccc(N4CCC4)nc32)n1"
(A) 40

(Q) Please look up its IC50: "O=C(O)c1csc(Cn2nc(-c3ccccc3)c3ccc(C(F)(F)F)cc32)n1"
(A) 12

(Q) Please look up its IC50: "O=C(O)c1csc(-n2nc(-c3ccccc3)c3ccc(C(F)(F)F)nc32)n1"
(A) 0.3

* * *

Target: Prostaglandin E2 receptor EP3 subtype (Homo sapiens)
Sequence (P43115 whole entry): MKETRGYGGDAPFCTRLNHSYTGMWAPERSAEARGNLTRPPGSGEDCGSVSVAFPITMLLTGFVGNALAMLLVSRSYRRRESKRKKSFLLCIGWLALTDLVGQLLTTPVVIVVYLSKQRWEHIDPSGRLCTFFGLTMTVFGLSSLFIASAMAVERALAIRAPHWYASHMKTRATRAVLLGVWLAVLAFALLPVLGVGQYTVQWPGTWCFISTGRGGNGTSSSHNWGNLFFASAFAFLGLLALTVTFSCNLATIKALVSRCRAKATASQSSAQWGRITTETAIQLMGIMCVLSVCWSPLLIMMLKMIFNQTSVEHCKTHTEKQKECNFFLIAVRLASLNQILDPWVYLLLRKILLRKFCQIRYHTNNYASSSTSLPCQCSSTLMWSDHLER
pKi: −log10 of the molar value.
Quantity: pKi

(Q) Please look up its pKi: "O=C(O)c1csc(-n2nc(-c3ccccc3)c3ccc(C(F)(F)F)nc32)n1"
(A) < 5.30
